Provide the recorded MIC for the entries that follow.
test system: E. faecalis GC 842; assay: In vitro MIC, broth dilution; assay type: cell-based; settings: Enterococcus faecalis, GC842; E. faecalis GC 842; read-out: MIC
Express the result in µg/mL but write the number alone.

Incoming: Report MIC for COc1ccc(Cn2c(=O)ccn([C@@H]3OC([C@H](O)[C@H](NCCCNC(=O)[C@@H](N)CC(C)C)C(=O)OC(C)(C)C)[C@@H](O)[C@H]3O)c2=O)cc1 (stereo partly drawn)
Outgoing: 128

Incoming: Report MIC for COc1ccc(Cn2c(=O)ccn([C@@H]3OC([C@H](O)[C@H](NCCCNC(=O)[C@H](CC(C)C)NC(=O)OCc4ccccc4)C(=O)OC(C)(C)C)[C@@H](O)[C@H]3O)c2=O)cc1 (stereo partly drawn)
Outgoing: 128

Incoming: Report MIC for COc1ccc(Cn2c(=O)ccn([C@@H]3OC([C@H](O)[C@H](NCCCNC(=O)[C@@H](NC(=O)OCc4ccccc4)[C@H](C)O)C(=O)OC(C)(C)C)[C@@H](O)[C@H]3O)c2=O)cc1 (stereo partly drawn)
Outgoing: 128

Incoming: Report MIC for COc1ccc(Cn2c(=O)ccn([C@@H]3OC([C@H](O)[C@H](NCCCNC(=O)[C@H](N)CC(C)C)C(=O)OC(C)(C)C)[C@@H](O[Si](C)(C)C(C)(C)C)[C@H]3O[Si](C)(C)C(C)(C)C)c2=O)cc1 (stereo partly drawn)
Outgoing: 8

Incoming: Report MIC for COc1ccc(Cn2c(=O)ccn([C@@H]3OC([C@H](O)[C@H](NCCCNC(=O)[C@@H](NC(=O)OCc4ccccc4)C(C)O)C(=O)O)[C@@H](O)C3O[Si](C)(C)C(C)(C)C)c2=O)cc1 (stereo in doubt)
Outgoing: 128

Incoming: Report MIC for COc1ccc(Cn2c(=O)ccn([C@@H]3OC([C@H](O)[C@H](NCCCNC(=O)[C@@H](N)C(C)O)C(=O)O)[C@@H](O)[C@H]3O[Si](C)(C)C(C)(C)C)c2=O)cc1 (stereo partly drawn)
Outgoing: 128
